Quick reference for IC50 among some compounds
target: RORγ (Homo sapiens, UniProt P51449); construct: Gal4 (galactose-responsive transcription factor); expressed in transfected cells; host or cells: HEK293; experiment: RORγ Reporter Assay (Gal4); format: cell-based; conditions: HEK293 co-transfected with RORγ LBD-Gal4 and luciferase reporter, 24 h incubation, absolute IC50; read-out: IC50
Sequence (P51449 269-508 limits assumed): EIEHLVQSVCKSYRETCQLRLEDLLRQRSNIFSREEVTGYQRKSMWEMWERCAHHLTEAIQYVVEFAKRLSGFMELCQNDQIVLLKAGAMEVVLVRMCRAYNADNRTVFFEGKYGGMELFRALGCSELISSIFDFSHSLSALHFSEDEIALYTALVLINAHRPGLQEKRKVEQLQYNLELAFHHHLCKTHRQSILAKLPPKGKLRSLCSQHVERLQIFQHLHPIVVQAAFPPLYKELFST
The response must be a number in nM with no trailing unit.

Examples from the recorded data:
NC(=O)CN1CCC(CNc2ncnc(N3CCC[C@@H]3c3ccc(C(F)(F)F)cc3)c2F)CC1 :: 66
NC(=O)CN1CC[C@H](CNc2ncnc(N3CC(F)(F)C[C@@H]3c3ccc(C(F)(F)F)cc3)c2F)[C@@H](O)C1 (single isomer, unassigned) [Example H6-17-2] :: 31

Please give the measured IC50 for this compound: NC(=O)CN1CC[C@H](CNc2ncnc(N3CCOC[C@@H]3c3ccc(C(F)(F)F)cn3)c2F)[C@@H](F)C1 (single isomer, unassigned) [Example H6-13-1]
160
